All figures here come from the supplement of paper PMC10567573.

B1: PPP2R2B (parent)
chain: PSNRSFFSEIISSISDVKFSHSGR

- Variants of: B1
- EXPERIMENT_DESCRIPTION: protein stability index of a GFP-peptide fusion (GPS, HEK-293T) (PSI 1-6); higher = more stable;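 also: lentivirally expressed fusions sorted by FACS into six bins by GFP to DsRed ratio, PSI derived from sequencing read proportions per bin multiplied by bin number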
- APPLIED_CONDITIONS: c terminus: a fixed tail appended
MEASURE_NAME: protein stability index

>>> value_observed("R4C")
1.83
>>> value_observed("S20E")
2.94
>>> value_observed("P1S")
2.21
>>> value_observed("S13E")
3.26
>>> value_observed("R24V")
1.59
>>> value_observed("I14C")
2.46
>>> value_observed("S8T")
2.62
>>> value_observed("F6D")
3.53
>>> value_observed("V17C")
2.4
>>> value_observed("I14H")
2.79
>>> value_observed("S22T")
2.42
>>> value_observed("P1H")
1.8
>>> value_observed("S12G")
2.54
>>> value_observed("E9I")
3.63
>>> value_observed("S5L")
2.13
>>> value_observed("V17N")
2.9
>>> value_observed("I10M")
2.62
>>> value_observed("E9Q")
2.31
>>> value_observed("K18M")
2.02
>>> value_observed("F7V")
2.24
>>> value_observed("F7W")
2.41
>>> value_observed("V17Q")
2.81
>>> value_observed("H21G")
2.39
>>> value_observed("G23S")
2.33
>>> value_observed("S22N")
2.58
>>> value_observed("V17F")
2.18
>>> value_observed("I11G")
3.36
>>> value_observed("G23Y")
2.27
>>> value_observed("S15D")
2.83
>>> value_observed("S5M")
2.65
>>> value_observed("F6R")
3.02
>>> value_observed("S12A")
2.23
>>> value_observed("S13I")
2.5
>>> value_observed("N3L")
2.17
>>> value_observed("N3H")
2.72
>>> value_observed("V17S")
2.5
>>> value_observed("S15T")
2.05
>>> value_observed("I10R")
2.79
>>> value_observed("R4N")
2.2
>>> value_observed("S22Q")
2.43
>>> value_observed("R4D")
3.49
>>> value_observed("S13F")
1.73
>>> value_observed("I10C")
2.91
>>> value_observed("S2K")
1.92
>>> value_observed("F6C")
2.38
>>> value_observed("S12P")
2.65
>>> value_observed("S13P")
2.99
>>> value_observed("F19P")
3
>>> value_observed("P1W")
1.83
>>> value_observed("N3T")
2.14
>>> value_observed("S22H")
2.48
